Recorded protein stability index by entry
B1: SFRS1 (parent)
chain: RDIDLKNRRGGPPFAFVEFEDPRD

- Variants of: B1
- assayExplanation: protein stability index of a GFP-peptide fusion (GPS, HEK-293T) (PSI 1-6); higher = more stable;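 also: lentivirally expressed fusions sorted by FACS into six bins by GFP to DsRed ratio, PSI derived from sequencing read proportions per bin multiplied by bin number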
- conditionNotes: c terminus: a fixed tail appended
# answer = number (no unit)

> print(dat)
   variantdescription  measurement
1                R23L         3.72
2                P22N         4.15
3                 R9K         3.69
4                 D2R         3.34

-- ask Field request: protein stability index | item: P22D
-- reply 4.5

-- ask Moving on to the next variant: I3M
-- reply 3.57

-- ask Moving on to the next variant: V17D
-- reply 4.77

-- ask Moving on to the next variant: R9S
-- reply 4.12

-- ask Moving on to the next variant: V17G
-- reply 4.43

-- ask Moving on to the next variant: F19Q
-- reply 3.94

Reference for the values: the supplement of paper PMC10567573
